assay: Highest frequency of acute liver toxicity observed during clinical trials, expressed as a percentage. [column '% AIGUE' in source]; details: human
PROPERTY_MEASURED: Hepatotoxicity (acute) (%)
Give just the numeric value; % need not be written.

Use these answered entries as a reference point.
INSERT INTO assay_data (molecule, property_measured, unit_of_measure, readout_number) VALUES
  ('CN(Cc1cnc2nc(N)nc(N)c2n1)c1c(Cl)cc(C(=O)N[C@@H](CCC(=O)O)C(=O)O)cc1Cl', 'Hepatotoxicity (acute)', '%', 0),
  ('NC1=NC(=O)C(c2ccccc2)O1 (stereo not given) [PEMOLINE]', 'Hepatotoxicity (acute)', '%', 0.3),
  ('COC(=O)Nc1nc2cc(C(=O)c3ccc(F)cc3)ccc2[nH]1 [FLUBENDAZOLE]', 'Hepatotoxicity (acute)', '%', 0);

Tell me the measured Hepatotoxicity (acute) of CCOc1ccc2ccccc2c1C(=O)N[C@@H]1C(=O)N2[C@@H]1SC(C)(C)[C@@H]2C(=O)O [NAFCILLIN] , please. 3.1

Tell me the measured Hepatotoxicity (acute) of Cc1cn([C@H]2C[C@H](F)[C@@H](CO)O2)c(=O)[nH]c1=O [ALOVUDINE] , please. 3.3
